Molecular target: BCL6 (Homo sapiens, UniProt P41182)
Construct: endogenous in cells; host or cells: T47D breast cancer epithelial cells
Assay: Immunofluorescence protocol for high content imaging of BCL6 (degradation) in T47D cells, 3 days compound treatment
Type: cell-based
Conditions: T47D, read-out: Mean Dmax (%)** category
ENDPOINT_NAME: Dmax

# example entries with known answers
COMPOUND: CNC(=O)COc1cc2cc(Nc3cc(N4CCC(CN5CCC6(CC5)CN(c5ccc7c(c5)CN(C5CCC(=O)NC5=O)C7=O)C6(C)C)CC4)ncc3Cl)ccc2n(C(C)C)c1=O (stereo not shown)
Dmax: 50 to 70%
//
COMPOUND: CNC(=O)COc1cc2cc(Nc3nc(N4CCC(O[C@H]5C[C@H](N6[C@H](C)CN(c7ccc8c(c7)C(=O)N(C7CCC(=O)NC7=O)C8=O)C[C@H]6C)C5)CC4)ncc3Cl)ccc2n(C(C)C)c1=O (stereo partly shown)
Dmax: < 50%
//
COMPOUND: CNC(=O)COc1cc2cc(Nc3cc(N4CCC(CN5CCC6(CC5)CN(c5ccc7c(c5F)CN(C5CCC(=O)NC5=O)C7=O)C6(C)C)CC4)ncc3Cl)ccc2n(C(C)C)c1=O (stereo not shown)
Dmax: ≥ 70%

[ask] Suppose we examine the compound CNC(=O)COc1cc2cc(Nc3nc(N4CCC(O[C@H]5C[C@H](N6CCN(CC7CCN(c8ccc9c(c8F)CN(C8CCC(=O)NC8=O)C9=O)CC7)CC6)C5)CC4)ncc3Cl)ccc2n(C(C)C)c1=O (stereo partly shown) ; what Dmax value has been reported?
[reply] 50 to 70%

[ask] Suppose we examine the compound CNC(=O)COc1cc2cc(Nc3nc(N4CCC(O[C@H]5C[C@H](N6CCN(c7ccc8c(c7Cl)CN([C@@H]7CCC(=O)NC7=O)C8=O)[C@H](C)C6)C5)CC4)ncc3Cl)ccc2n(C(C)C)c1=O ; what Dmax value has been reported?
[reply] ≥ 70%

[ask] Suppose we examine the compound CNC(=O)COc1cc2cc(Nc3nc(N4CCC(CN5CC(N6CCC(c7ccc8c(c7)CN(C7CCC(=O)NC7=O)C8=O)C(F)C6)C5)CC4)ncc3Cl)ccc2n(C(C)C)c1=O (stereo not shown) ; what Dmax value has been reported?
[reply] 50 to 70%

[ask] Suppose we examine the compound CNC(=O)COc1cc2cc(Nc3nc(N4CCC(CN5CCC6(CC5)CN(c5ccc7c(c5OC)CN(C5CCC(=O)NC5=O)C7=O)C6)CC4)ncc3Cl)ccc2n(C(C)C)c1=O (stereo not shown) ; what Dmax value has been reported?
[reply] 50 to 70%

[ask] Suppose we examine the compound CNC(=O)COc1cc2cc(Nc3nc(N4CCC(O[C@H]5C[C@H](N6CCN(c7ccc8c(c7F)CN([C@H]7CCC(=O)NC7=O)C8=O)[C@H](C)C6)C5)CC4)ncc3Cl)ccc2n(C(C)C)c1=O ; what Dmax value has been reported?
[reply] ≥ 70%

[ask] Suppose we examine the compound CNC(=O)COc1cc2cc(Nc3nc(N4CCC(O[C@H]5C[C@H](N6CC=C(c7ccc8c(c7)CN(C7CCC(=O)NC7=O)C8=O)CC6)C5)CC4)ncc3Cl)ccc2n(C(C)C)c1=O (stereo partly shown) ; what Dmax value has been reported?
[reply] 50 to 70%

[ask] Suppose we examine the compound CNC(=O)COc1cc2cc(Nc3nc(N4CCN(CC5CC6(CCN(c7cc8c(cc7F)C(=O)N(C7CCC(=O)NC7=O)C8)CC6)C5)CC4)ncc3Cl)ccc2n(C(C)C)c1=O (stereo not shown) ; what Dmax value has been reported?
[reply] 50 to 70%
